- TARGET OF ASSAY: CDK2/CycE (Homo sapiens, UniProt P24941)
- Construct: GST
- EXPERIMENT: CDK2/CycE kinase assay
- TEST CONDITIONS: 0.5 μM ATP, histone IIIS, 22° C., 10 min
RECORDED ENDPOINT: IC50

Previously resolved entries follow.
COMPOUND | IC50
Cc1ccc(S(=O)(=O)N=S(C)c2ccc(Nc3ncc(Br)c(Nc4ccccc4)n3)cc2)cc1 (racemic) [Example 6] | > 1000 nM
Cc1ccc(S(=O)(=O)N=S(C)c2cccc(Nc3ncc(Br)c(NC(C)C)n3)c2)cc1 (racemic) [Example 2] | > 1000 nM

Please look at the following compound next.
Entry under review: Cc1ccc(S(=O)(=O)N=S(C)c2cccc(Nc3ncc(Br)c(NC4CC4)n3)c2)cc1 (racemic) [Example 4] . Reported IC50?
> 1000 nM
